# System: rodent lifetime carcinogenesis bioassay, tumor incidence TD50
# procedure-details: carcinogenic potency in animals, long-term in vivo studies, CPDB compilation (AID 1745844)
# condition-context: rat; strain Fischer 344; males; in feed; site: kidney + liver; lesion: adenocarcinoma, NOS + tubular-cell adenoma + tubular-cell adenocarcinoma + hepatocellular carcinoma + neoplastic nodule; dosed 78 weeks; study length 104 weeks
observation-type: TD50 (mg/kg/day)
Only the number, expressed in mg/kg/day, is required.

For Cc1ccc2c(c1N)C(=O)c1ccccc1C2=O , write its TD50.
34.1

###

# System: rodent lifetime carcinogenesis bioassay, tumor incidence TD50
# procedure-details: carcinogenic potency in animals, long-term in vivo studies, CPDB compilation (AID 1745844)
# condition-context: mouse; strain C57BL/6; males; in feed; site: pituitary gland; lesion: adenoma; dosed 125 weeks; study length 153 weeks
observation-type: TD50

For CC/C(=C(/CC)c1ccc(O)cc1)c1ccc(O)cc1 , write its TD50.
0.0176 mg/kg/day

###

# Tested on: rodent lifetime carcinogenesis bioassay, tumor incidence TD50
# procedure-details: carcinogenic potency in animals, long-term in vivo studies, CPDB compilation (AID 1745844)
# condition-context: hamster; strain Syrian Golden; males; inhaled; site: liver; lesion: hepatoma; dosed 30 weeks; study length 101 weeks
observation-type: TD50 (mg/kg/day)
Only the number, expressed in mg/kg/day, is required.

// output TD50; input C=CCl ; system rodent lifetime carcinogenesis bioassay, tumor incidence TD50
1730

###

Each item that follows carries a reported TD50.
# System: rodent lifetime carcinogenesis bioassay, tumor incidence TD50
# procedure-details: carcinogenic potency in animals, long-term in vivo studies, CPDB compilation (AID 1745844)
# condition-context: rat; strain Fischer 344; males; in feed; site: any site (literature study); lesion: several types; types named in the paper; dosed 104 weeks; study length 104 weeks
Active and inactive are the calls of the source. The rule behind the calls is not given here.

For O=C1OC(c2ccc(O)cc2)(c2ccc(O)cc2)c2ccccc21 , write its TD50.
3540 mg/kg/day

For ClC1(Cl)C2(Cl)C3(Cl)C4(Cl)C(Cl)(Cl)C5(Cl)C3(Cl)C1(Cl)C5(Cl)C24Cl (stereo not drawn) , write its TD50.
0.618 mg/kg/day

For C[C@H]1CCCC(=O)CCC/C=C/c2cc(O)cc(O)c2C(=O)O1 , write its TD50.
16.2 mg/kg/day (inactive)

For [Cl][Sn][Cl] , write its TD50.
180 mg/kg/day

For O=C1c2ccccc2-c2ccc3c4c(ccc1c24)-c1ccccc1C3=O , write its TD50.
787 mg/kg/day (inactive)

For Brc1cc(Br)c(-c2cc(Br)c(Br)cc2Br)cc1Br , write its TD50.
1.56 mg/kg/day

For Cc1ncc[nH]1 , write its TD50.
303 mg/kg/day

For Cc1cc(O)c(C(C)(C)C)cc1Sc1cc(C(C)(C)C)c(O)cc1C , write its TD50.
449 mg/kg/day (inactive)

###

# System: rodent lifetime carcinogenesis bioassay, tumor incidence TD50
# procedure-details: carcinogenic potency in animals, long-term in vivo studies, CPDB compilation (AID 1745844)
# condition-context: mouse; strain Swiss albino; males; in drinking water; site: forestomach; lesion: several types; types named in the paper; dosed 109 weeks; study length 109 weeks
observation-type: TD50

For CCCCN(N)CCCC , write its TD50.
84.2 mg/kg/day
